Each record here notes measured IC50.
- Tested on: IL-1b
- protocol_text: Mouse BMDM IL-1b Assay
- Type: cell-based
- condition_notes: Macrophage; mouse bone marrow derived macrophages (C57BL6); 200 ng/mL LPS 3 h, compound 30 min, 5 mM ATP 45 min; IL-1b ELISA of supernatant

molecule | subject_of_test | IC50
Cc1c(S(=O)(=O)NC(=O)Nc2c3c(cc4c2CCC4)CCC3)oc2c1/C(=N\O)CCC2 | IL-1b | 0.1 to 1 µM
CC(C)c1ccc(Cl)c(C(C)C)c1NC(=O)NS(=O)(=O)c1cc2c(o1)CCCCC2O (centres unmarked) | IL-1b | 0.1 to 1 µM
CC(C)c1ccc(F)c(C(C)C)c1NC(=O)NS(=O)(=O)c1cc2c(o1)CCCC2(C)O (centres unmarked) | IL-1b | < 0.1 µM
CC1(C)CCC(C)(O)c2cc(S(=O)(=O)NC(=O)Nc3c4c(cc5c3CCC5)CCC4)oc21 (centres unmarked) | IL-1b | < 0.1 µM
CC1(C)CCc2oc(S(=O)(=O)NC(=O)Nc3c4c(cc5c3CCC5)CCC4)cc2C1=O | IL-1b | 0.1 to 1 µM
